# Vd per record follows
Test: In vivo pharmacokinetic study, mouse
Details: blood, intravenous; Mouse (avg); read-out: Vss
endpoint-name: Vd (L/kg)

{"molecule": "CNC(=O)c1c(-c2ccc(F)cc2)oc2cc(N(Cc3ccc(B(O)O)c(F)c3)S(C)(=O)=O)c(C3CC3)cc12 [D]", "numeric-readout": 0.6}
{"molecule": "CNC(=O)c1c(-c2ccc(F)cc2)oc2cc(N(Cc3cc(F)c4c(c3)COB4O)S(C)(=O)=O)c(C3CC3)cc12 [A]", "numeric-readout": 0.3}

====

Here the recorded bioavailability is given for each entry.
Assay: In vivo pharmacokinetic study, dog
Conditions: dog, blood, oral
endpoint-name: bioavailability

{"smiles-record": "CNC(=O)c1c(-c2ccc(F)cc2)oc2cc(N(Cc3ccc(B(O)O)c(F)c3)S(C)(=O)=O)c(C3CC3)cc12", "result": "70%"}
{"smiles-record": "CNC(=O)c1c(-c2ccc(F)cc2)oc2cc(N(c3cc(Cl)c4c(c3)COB4O)S(C)(=O)=O)c(C3CC3)cc12", "result": "82%"}
{"smiles-record": "CNC(=O)c1c(-c2ccc(F)cc2)oc2cc(N(c3ccc(B(O)O)c(Cl)c3)S(C)(=O)=O)c(C3CC3)cc12", "result": "83%"}
{"smiles-record": "CNC(=O)c1c(-c2ccc(F)cc2)oc2cc(N(Cc3cc(F)c4c(c3)COB4O)S(C)(=O)=O)c(C3CC3)cc12", "result": "71%"}
